Starred links: 1 amine or outer side, 2 acyl side, 3 side chain; linkers in the order of their positions; H or OH if unused. Non-standard residues stand in square brackets, D forms with d. Residues, ends and D or L forms follow the SMILES beside them. *: point of attachment. X2 = CCCC(N[*:1])C(=O)C(=O)[*:2]; Tic = O=C(O)[C@@H]1Cc2ccccc2CN1; Chg = N[C@H](C(=O)O)C1CCCCC1; Phg = N[C@H](C(=O)O)c1ccccc1; Boc = CC(C)(C)OC(=O)*
Here we list compounds with their recorded Ki when tested on Human Liver Cathepsin L (Homo sapiens).
Measured metric: Ki (nM)

Worked examples follow.
[
  {
    "Compound": "CCCC(NC(=O)[C@@H]1Cc2ccccc2CN1C(=O)[C@@H](NC(=O)OC(C)(C)C)C1CCCCC1)C(=O)C(=O)NCC(=O)N[C@H](C(=O)NC)c1ccccc1 (stereo partly shown) (Boc-[Chg][Tic][X2]G[Phg]-NHMe)",
    "Assay result": 36
  },
  {
    "Compound": "CC(C)C[C@@H](C(=O)NC(CC1CCC1)C(=O)C(N)=O)N1CCCCCC[C@H](NC(=O)N[C@@H](C(=O)OC(C)C)C(C)(C)C)C1=O (stereo partly shown)",
    "Assay result": 120
  },
  {
    "Compound": "C=CCNC(=O)C(=O)[C@@H]1CCCCCCCCC[C@H](NC(=O)N[C@H](CN(C)S(=O)(=O)N(C)C)C(C)(C)C)C(=O)N2C[C@H]3[C@@H]([C@H]2C(=O)N1)C3(C)C",
    "Assay result": 370
  },
  {
    "Compound": "CC(=O)N[C@@H](CC(C)C)C(=O)N[C@@H](CC(C)C)C(=O)N[C@H](C=O)CCCNC(=N)N [drawing 688]",
    "Assay result": 1.9
  },
  {
    "Compound": "CC(=O)N[C@@H](CC(C)C)C(=O)N[C@@H](CC(C)C)C(=O)N[C@H](C=O)CCCNC(=N)N [drawing 689]",
    "Assay result": 8
  }
]

1. CCC1C[C@]1(NC(=O)[C@@H]1C[C@H](Oc2cc(-c3ccccc3)nc3cc(OC)ccc23)CN1C(=O)[C@@H](NC(=O)OC(C)(C)C)C(C)C)C(=O)O (stereo partly shown)
2. CC(C)(C)OC(=O)N[C@H]1CCCCCCCC[C@@H](C(=O)C(N)=O)NC(=O)[C@@H]2[C@@H]3[C@H](CN2C1=O)C3(C)C
3. C=CCNC(=O)C(=O)[C@H](CCC1CC1)NC(=O)[C@@H]1[C@@H]2[C@H](CN1C(=O)[C@@H](NC(=O)NC1(CS(=O)(=O)C(C)(C)C)CCCCC1)C(C)(C)C)C2(C)C [drawing 669]
# ascending order, key=Ki A ranking is expressed here by listing the labels in the requested order. 3, 1, 2
(3: 40 nM, 1: 100 nM, 2: 550 nM)

###

Here we list compounds with their recorded pKi when tested on Human Liver Cathepsin L (Homo sapiens, UniProt P07711).
Sequence (P07711 114-288 limits assumed): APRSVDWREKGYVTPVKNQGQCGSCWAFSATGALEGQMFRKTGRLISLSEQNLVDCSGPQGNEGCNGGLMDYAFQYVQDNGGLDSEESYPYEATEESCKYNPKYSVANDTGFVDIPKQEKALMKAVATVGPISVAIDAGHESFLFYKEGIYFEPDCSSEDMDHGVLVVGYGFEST
Sequence (P07711 292-333 limits assumed): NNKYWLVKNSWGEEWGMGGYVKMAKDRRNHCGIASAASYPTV
pKi: −log10 of the molar value. Starred links: 1 amine or outer side, 2 acyl side, 3 side chain; linkers in the order of their positions; H or OH if unused. Non-standard residues stand in square brackets, D forms with d. Residues, ends and D or L forms follow the SMILES beside them. *: point of attachment. Pro(3S,4R-methano) = O=C(O)[C@H]1NC[C@@H]2C[C@@H]21; X3 = C=CCCC(N[*:1])C(=O)C(=O)[*:2]; Chg = N[C@H](C(=O)O)C1CCCCC1; Phg = N[C@H](C(=O)O)c1ccccc1; Boc = CC(C)(C)OC(=O)*
Measured metric: pKi

Worked examples follow.
[
  {
    "Compound": "CCCC(NC(=O)[C@@H]1[C@@H]2CCN1C(=O)[C@H](C(C)(C)C)NC(=O)Cc1cccc(c1)OCCCO2)C(=O)C(=O)NCC(=O)N[C@H](C(=O)N(C)C)c1ccccc1 (stereo partly drawn)",
    "pKi": 7.15
  },
  {
    "Compound": "C=CCNC(=O)C(=O)[C@@H]1CCCCCCCCC[C@H](NC(=O)NC2(CS(=O)(=O)C(C)(C)C)CCCCC2)C(=O)N2C[C@H]3[C@@H]([C@H]2C(=O)N1)C3(C)C [drawing 699]",
    "pKi": 7.22
  }
]

A. CCCC(NC(=O)[C@@H]1Cc2ccc3cc2CN1C(=O)[C@H](C1CCCCC1)NC(=O)CCCCCCO3)C(=O)C(N)=O (stereo partly drawn)
B. C=CCNC(=O)C(=O)C(CC1CC1)NC(=O)[C@@H]1[C@@H]2[C@H](CN1C(=O)[C@@H](NC(=O)N[C@H](CN1C(=O)CC(C)(C)CC1=O)C(C)(C)C)C(C)(C)O)C2(C)C (stereo partly drawn)
C. CC(=O)N[C@@H](CC(C)C)C(=O)N[C@@H](CC(C)C)C(=O)N[C@H](C=O)CCCNC(=N)N [drawing 687]
D. C=CCCC(NC(=O)[C@@H]1[C@H]2C[C@H]2CN1C(=O)[C@@H](NC(=O)OC(C)(C)C)C1CCCCC1)C(=O)C(=O)NCC(=O)N[C@H](C(=O)N(C)C)c1ccccc1 (stereo partly drawn) (Boc-[Chg][Pro(3S,4R-methano)][X3]G[Phg]-NMe2)
# ascending order, key=pKi A ranking is expressed here by listing the labels in the requested order. D, A, B, C

Just for reference, patent US20060252698A1 is where these values come from.
